Recorded values, source ChEMBL document CHEMBL4024748.

Here the recorded pIC50 is given for each entry.
# Test system: MV4-11
# test-method-notes: Antiproliferative activity against human MV4-11 cells assessed as decrease in cell viability measured at day 12 by Cell-Titer Glo assay
# Type: functional, cell-based
# experimental-parameters: MV4-11, 288 h
pIC50: −log10 of the molar value.
measured-quantity: pIC50

| structure-as-smiles | measured-quantity | measured-result |
| --- | --- | --- |
| CNCCN(C)Cc1ccccc1Sc1ccccc1Cl | pIC50 | 5.97 |
| CN(CCN)Cc1ccccc1Sc1ccccc1Cl | pIC50 | 6.09 |

====

Here the recorded IC50 is given for each entry.
# tested-target: UniProt Q63009
# test-method-notes: Inhibition of rat His-tagged PRMT1 (11 to 353 residues) expressed in Escherichia coli BL21(DE3) using biotinylated H4 peptide (1 to 21 residues) as substrate preincubated for 15 mins followed by substrate addition measured after 60 mins in presence of [3H]SAM by microbeta counting method

| structure-as-smiles | IC50 |
| --- | --- |
| CN(C)CCN(C)Cc1ccccc1Sc1cccc2ccccc12 | 3 µM |
| CN(C)CCNC(=O)c1ccccc1Sc1ccccc1Cl | > 50 µM |
| Cc1ccc(-c2cc(CC(=O)c3c(O)cc(O)cc3O)n[nH]2)cc1 | 49 µM |
| CN(C)CCNCc1ccccc1Sc1ccccc1Cl | 54 µM |
| CN(CCN)Cc1ccccc1Sc1ccccc1Cl | 0.0053 µM |
| CN(C)CCN(C)Cc1ccccc1Sc1ccccc1F | 0.71 µM |
| CN(C)CCNCc1ccccc1Sc1cccc2ccccc12 | 34 µM |
| CN(C)CCNC(=O)c1ccccc1Sc1ccccc1 | > 50 µM |
| CN(C)CCNCc1ccccc1Sc1ccccc1F | 45 µM |
| CCOC(=O)c1c2c3ccccc3c3ccccc3c2cc2[n+]1CCc1ccccc1-2 | 53 µM |
| CNCCN(C)Cc1ccccc1Sc1ccccc1Cl | 0.006 µM |
| CN(C)CCNC(=O)c1ccccc1Sc1cccc2ccccc12 | > 200 µM |
| CN(C)CCNCc1ccccc1Sc1ccccc1 | > 50 µM |

====

# tested-target: Protein arginine N-methyltransferase 8 (Homo sapiens)
# Sequence (Q9NR22 whole entry): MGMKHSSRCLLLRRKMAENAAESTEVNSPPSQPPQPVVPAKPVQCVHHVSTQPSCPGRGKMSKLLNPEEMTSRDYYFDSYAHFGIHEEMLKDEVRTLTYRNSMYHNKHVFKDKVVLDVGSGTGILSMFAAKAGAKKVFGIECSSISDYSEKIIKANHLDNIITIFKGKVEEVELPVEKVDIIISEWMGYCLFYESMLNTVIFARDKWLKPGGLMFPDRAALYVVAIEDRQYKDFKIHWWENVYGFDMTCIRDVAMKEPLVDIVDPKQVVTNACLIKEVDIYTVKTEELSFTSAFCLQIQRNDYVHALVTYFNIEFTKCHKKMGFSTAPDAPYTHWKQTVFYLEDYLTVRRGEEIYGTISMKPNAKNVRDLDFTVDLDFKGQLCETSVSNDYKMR

| structure-as-smiles | IC50 |
| --- | --- |
| CN(CCN)Cc1ccccc1Sc1ccccc1Cl | 1.1 nM |

====

# tested-target: Protein arginine N-methyltransferase 1 (Rattus norvegicus)
# Sequence (Q63009 whole entry, the tested form may be a part): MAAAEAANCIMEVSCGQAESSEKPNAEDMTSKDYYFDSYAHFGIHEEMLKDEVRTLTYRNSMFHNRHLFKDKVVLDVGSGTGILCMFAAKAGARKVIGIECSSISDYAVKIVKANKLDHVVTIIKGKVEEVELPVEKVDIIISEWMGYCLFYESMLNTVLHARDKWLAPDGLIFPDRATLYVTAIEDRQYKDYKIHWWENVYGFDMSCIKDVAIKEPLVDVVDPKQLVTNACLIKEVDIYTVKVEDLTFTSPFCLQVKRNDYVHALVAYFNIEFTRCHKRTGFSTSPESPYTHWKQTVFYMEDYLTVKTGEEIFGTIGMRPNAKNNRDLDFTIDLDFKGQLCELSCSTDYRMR
# test-method-notes: Inhibition of rat His-tagged PRMT1 (11 to 353 residues) expressed in Escherichia coli BL21(DE3) using biotinylated H4 peptide (1 to 21 residues) as substrate preincubated for 15 mins followed by substrate addition measured after 60 mins in presence of [3H]SAM by microbeta counting method

| structure-as-smiles | IC50 |
| --- | --- |
| CN(C)CCNC(=O)c1ccccc1Sc1ccccc1F | > 200 µM |
| C=CCOc1ccc(CNCCc2ccc(S(N)(=O)=O)cc2)cc1 | 85 µM |
| CN(C)CCN(C)Cc1ccccc1Sc1ccccc1Cl | 0.39 µM |
| c1ccc(COc2cccc(CNCC3CCNCC3)c2)cc1 | 147 µM |
| CN(C)CCN(C)Cc1ccccc1Sc1ccccc1 | 3.6 µM |
